Biological target: Sterol 24-C-methyltransferase (Yarrowia lipolytica) (UniProt Q6C2D9)
Sequence (Q6C2D9 whole entry): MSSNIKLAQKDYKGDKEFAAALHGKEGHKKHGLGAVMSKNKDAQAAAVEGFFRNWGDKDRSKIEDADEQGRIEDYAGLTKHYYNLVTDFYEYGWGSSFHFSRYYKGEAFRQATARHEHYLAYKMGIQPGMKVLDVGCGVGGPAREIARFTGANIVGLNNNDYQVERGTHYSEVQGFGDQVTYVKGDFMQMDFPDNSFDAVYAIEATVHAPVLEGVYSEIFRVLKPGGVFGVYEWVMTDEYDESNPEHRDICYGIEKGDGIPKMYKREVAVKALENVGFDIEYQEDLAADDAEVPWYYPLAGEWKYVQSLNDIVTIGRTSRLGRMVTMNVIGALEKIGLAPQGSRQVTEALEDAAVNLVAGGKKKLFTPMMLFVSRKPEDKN
Assay: Inhibition of Yarrowia lipolytica 24-SMT assessed as dehydroergosterol-3-trimethylsilyl derivative at 0.06 ug/mL after 48 hrs by GC-MS analysis relative to untreated control
Design: scale not given: the % may be the effect or the level left
Please respond with reported Activity for every item in the list.
Numbers only, in %.

| COMPOUND | Activity, % |
| --- | --- |
| CCCCCNC[C@@H](C)[C@H]1CC[C@H]2C3=CC[C@H]4C[C@@H](O)CC[C@]4(C)[C@H]3CC[C@]12C | 68.9 |
| CCCCNC[C@@H](C)[C@H]1CC[C@H]2C3=CC[C@H]4C[C@@H](O)CC[C@]4(C)[C@H]3CC[C@]12C | 42.4 |
| CCCNCC[C@@H](C)[C@H]1CC[C@H]2C3=CC[C@H]4C[C@@H](O)CC[C@]4(C)[C@H]3CC[C@]12C | 25.9 |
| C[C@H](/C=C/c1cccc[n+]1C)[C@H]1CC[C@H]2C3=CCC4C[C@@H](O)CC[C@]4(C)[C@H]3CC[C@]12C.[I-] (stereo not given in full) | 82.1 |

Next up:
Task: What reported Activity corresponds to C[C@H](/C=C/c1cc[n+](C)cc1)[C@H]1CCC2C3=CCC4C[C@@H](O)CC[C@]4(C)C3CC[C@@]21C.[I-] (stereo not given in full) on Sterol 24-C-methyltransferase (Yarrowia lipolytica) (UniProt Q6C2D9)?
Result: 67.9
